Can you tell me % displacement (hIL-23R binding) for the items I'm about to list?
- tgt: T1, Nluc-IL23R fusion protein (human, UniProt Q5VWK5 22-629)
- T1 construct: range 22-629; expressed with a secretion signal in HEK293 cells; used as crude membrane preparation; also called hIL-23R; human IL-23R; not shown: Nanoluc protein from the expression plasmid N1371 (Promega), N-terminal of IL-23R
- T1 sequence (looked up): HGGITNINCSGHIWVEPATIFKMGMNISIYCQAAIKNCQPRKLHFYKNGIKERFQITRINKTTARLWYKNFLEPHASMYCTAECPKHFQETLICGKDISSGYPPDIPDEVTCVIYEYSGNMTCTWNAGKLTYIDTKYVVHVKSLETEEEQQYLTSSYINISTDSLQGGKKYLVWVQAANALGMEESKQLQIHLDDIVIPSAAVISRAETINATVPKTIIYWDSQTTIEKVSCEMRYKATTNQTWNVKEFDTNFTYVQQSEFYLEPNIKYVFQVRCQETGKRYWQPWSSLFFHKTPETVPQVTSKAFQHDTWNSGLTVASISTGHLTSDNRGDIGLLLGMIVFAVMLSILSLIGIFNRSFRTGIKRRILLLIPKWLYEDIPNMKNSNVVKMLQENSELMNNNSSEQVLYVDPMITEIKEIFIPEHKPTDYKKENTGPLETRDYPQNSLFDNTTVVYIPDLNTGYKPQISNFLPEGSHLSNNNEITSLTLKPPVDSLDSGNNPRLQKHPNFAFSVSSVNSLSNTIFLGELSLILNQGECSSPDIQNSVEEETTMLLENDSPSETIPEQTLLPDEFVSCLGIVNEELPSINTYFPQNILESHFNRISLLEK
- protocol details: BRET competition vs TAMRA-labelled peptide, Nluc-IL23R membranes
*1 amine or outer side, *2 acyl side, *3 side chain or, on linkers, in order; H or OH if unused. Bridges are numbered along the chain shown (N, C = ends). [ ]: non-standard residue; d: D form. The star is where a group is joined. 4‑Aminomethyl‑phenylacetyl = 4-aminomethyl-phenylacetyl unit, its amine closes the lactam, O=C(Cc1ccc(CN[*:1])cc1)[*:2]; αMeAla(3-pyridyl) = C[C@](N)(Cc1cccnc1)C(=O)O; NH(4-(3-pyridyl)butyl) = c1cncc(CCCCN*)c1; NH(2-(3-pyridyl)ethyl) = c1cncc(CCN*)c1; 2Nal = N[C@@H](Cc1ccc2ccccc2c1)C(=O)O; AEF = NCCOc1ccc(C[C@H](N)C(=O)O)cc1; NMe3Pal = CN[C@@H](Cc1cccnc1)C(=O)O; 3Pal = N[C@@H](Cc1cccnc1)C(=O)O; αMeL = CC(C)C[C@](C)(N)C(=O)O; Iso‑Dab = not defined here; Dab = NCC[C@H](N)C(=O)O
Give the figure together with its unit, number first.

binder	value observed
[4‑Aminomethyl‑phenylacetyl]SEWQ[Dab][AEF][2Nal][αMeL]E[Dab]-{NH(4-(3-pyridyl)butyl)} (lactam N-10, 3-6) [Compound 6]	103%

Provide each entry's % displacement (hIL-23R binding) from the list below.
1. [4‑Aminomethyl‑phenylacetyl]SEWQ[Dab][AEF][2Nal][αMeL]E[Dab][H(Me)]-NH2 (lactam N-10, 3-6) [Compound 14]
2. [4‑Aminomethyl‑phenylacetyl]AEWQ[Dab][AEF][2Nal][αMeL]E[Dab][3Pal]-NHMe (lactam N-10, 3-6; SMILES CNC(=O)[C@H](Cc1cccnc1)NC(=O)[C@H](CCN)NC(=O)[C@@H]1CCC(=O)NCc2ccc(cc2)CC(=O)N[C@@H](C)C(=O)N[C@H]2CCC(=O)NCC[C@H](NC(=O)[C@H](CCC(N)=O)NC(=O)[C@H](Cc3c[nH]c4ccccc34)NC2=O)C(=O)N[C@@H](Cc2ccc(OCCN)cc2)C(=O)N[C@@H](Cc2ccc3ccccc3c2)C(=O)N[C@@](C)(CC(C)C)C(=O)N1) [Compound 20]
3. [4‑Aminomethyl‑phenylacetyl]SEWQ[Dab][AEF][2Nal][αMeL]E[Dab][NMe3Pal]-NH2 (lactam N-10, 3-6) [Compound 4]
4. [4‑Aminomethyl‑phenylacetyl]SEWQ[Dab][AEF][2Nal][αMeL]E[Iso‑Dab][αMeAla(3-pyridyl)]-NH2 (lactam N-10, 3-6; reading uncertain; also: iso-Dab11 joined via side-chain amine) [Compound 15]
5. [4‑Aminomethyl‑phenylacetyl]SEWQ[Dab][AEF][2Nal][αMeL]E[Dab]-{NH(2-(3-pyridyl)ethyl)} (lactam N-10, 3-6; SMILES CC(C)C[C@]1(C)NC(=O)[C@H](Cc2ccc3ccccc3c2)NC(=O)[C@H](Cc2ccc(OCCN)cc2)NC(=O)[C@@H]2CCNC(=O)CC[C@H](NC(=O)[C@H](CO)NC(=O)Cc3ccc(cc3)CNC(=O)CC[C@@H](C(=O)N[C@@H](CCN)C(=O)NCCc3cccnc3)NC1=O)C(=O)N[C@@H](Cc1c[nH]c3ccccc13)C(=O)N[C@@H](CCC(N)=O)C(=O)N2) [Compound 7]

Key:
1. 102%
2. 97%
3. 111%
4. 96%
5. 102%
